experiment: AUC (0 to infinity) in Sprague-Dawley rat at 100 mg/kg, po administered as single dose by LC-MS/MS analysis; assay type: ADME, organism-based; parameters: dose 100 mg/kg, time infinity, route oral; settings: in vivo
Reported property: AUC(0-inf) (ng·h/mL)
Report the figure in ng·h/mL without appending any unit label.

Ask | Query: AUC(0-inf); subject: COc1ccc(-c2cc3cc(C(c4c[nH]c5ccccc45)c4c[nH]c5ccccc45)cc(C(C)(C)C)c3oc2=O)cc1OC
Reply | 417

* * *

test: Tmax in Sprague-Dawley rat at 100 mg/kg, po administered as single dose by LC-MS/MS analysis; type: ADME, organism-based; details: in vivo
Reported property: Tmax (h)
Provide the reading as a plain figure in h.

Ask | Bench note: what Tmax did COc1ccc(-c2cc3cc(C(c4c[nH]c5ccccc45)c4c[nH]c5ccccc45)cc(C(C)(C)C)c3oc2=O)cc1OC show?
Reply | 4
